These entries and their values trace back to patent US20210054097A1.

Entries and their measured ELISA signal relative to background follow.
measuredOn: T1, FX activation peptide 12-mer LDFNQTQPERGD (human)
T1 peptide: LDFNQTQPERGD-biotin
assayText: peptide ELISA
Ends that are not written are not given here.
Respond with the number and no other words.

A selection of reference data follows.
[
  {
    "binder": "Nb 701D07 (VHH, monovalent Nanobody; not shown: C-terminal FLAG3 and HIS6 tag) VHH: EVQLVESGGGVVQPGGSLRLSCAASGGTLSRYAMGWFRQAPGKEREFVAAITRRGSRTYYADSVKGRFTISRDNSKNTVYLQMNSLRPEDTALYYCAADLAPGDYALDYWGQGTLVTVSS",
    "recordedEndpoint": "ELISA signal relative to background",
    "reported": 0.79
  },
  {
    "binder": "Nb 729A04 (VHH, monovalent Nanobody; not shown: C-terminal FLAG3 and HIS6 tag) VHH: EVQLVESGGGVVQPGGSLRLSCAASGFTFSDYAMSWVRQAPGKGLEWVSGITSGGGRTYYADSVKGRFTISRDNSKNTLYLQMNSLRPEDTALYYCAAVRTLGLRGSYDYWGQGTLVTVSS",
    "recordedEndpoint": "ELISA signal relative to background",
    "reported": 0.98
  },
  {
    "binder": "Nb 702C12 (VHH, monovalent Nanobody; not shown: C-terminal FLAG3 and HIS6 tag) VHH: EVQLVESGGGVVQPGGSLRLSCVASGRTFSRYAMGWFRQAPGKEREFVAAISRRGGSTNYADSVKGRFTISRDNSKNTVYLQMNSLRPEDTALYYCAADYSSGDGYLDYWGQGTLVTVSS",
    "recordedEndpoint": "ELISA signal relative to background",
    "reported": 0.97
  }
]

// moving on: another record for ELISA signal relative to background
May I ask what ELISA signal relative to background has been recorded for Nb 721E08 (VHH, monovalent Nanobody; not shown: C-terminal FLAG3 and HIS6 tag) VHH: EVQLVESGGGVVQPGGSLRLSCAASGRTFSTYSMGWFRQAPGKEREFVAAITRRGSRTYYADSVKGRFTISRDNSKNTVYLQMNSLRPEDTALYYCAADRRPADSYLDYWGQGTLVTVSS ?
2.21
